Cited source for all entries: patent US20110262445A1

Molecular target: T1, human IL-23 (human, UniProt P29460 23-328; Q9NPF7 20-189)
T1 construct: Recombinant (Ebioscience); HIS-tagged in flow cytometry, biotinylated in some assays; also called hIL-23; rhIL-23
T1 sequence 1: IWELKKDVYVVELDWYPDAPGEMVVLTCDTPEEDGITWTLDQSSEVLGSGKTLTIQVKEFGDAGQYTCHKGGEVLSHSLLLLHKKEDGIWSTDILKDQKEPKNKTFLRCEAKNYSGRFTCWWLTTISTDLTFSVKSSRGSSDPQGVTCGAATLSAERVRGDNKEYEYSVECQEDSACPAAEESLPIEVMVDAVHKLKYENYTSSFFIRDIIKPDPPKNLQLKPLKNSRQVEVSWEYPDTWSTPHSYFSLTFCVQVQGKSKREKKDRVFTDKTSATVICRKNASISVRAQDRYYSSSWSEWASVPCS
T1 sequence 2: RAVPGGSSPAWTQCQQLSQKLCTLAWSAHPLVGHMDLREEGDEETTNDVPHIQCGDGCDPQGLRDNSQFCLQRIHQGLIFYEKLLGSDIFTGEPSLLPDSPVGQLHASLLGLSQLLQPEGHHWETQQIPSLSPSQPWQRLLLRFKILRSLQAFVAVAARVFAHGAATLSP
Test: SPR, IgG on Protein A
ASSAY_ENDPOINT: koff (s⁻¹)
Write the value in s⁻¹ as a bare number.

Please review the following examples before continuing.
{"columns": ["BINDER", "UNIT_TEXT", "koff"],
 "data": [
  ["Antibody 205 (antibody, human IgG1, kappa, V domains shown) VH: QVQLVQSGAEVKKPGASVKVSCKASGYTFTDYYLHWVRQAPGRGLEWMGWIDPENGDTEYAPKFQGRVTMTTDTSTSTAYMELRSLRSDDTAVYYCAANKELRYFDVWGQGTMVTVSS VL: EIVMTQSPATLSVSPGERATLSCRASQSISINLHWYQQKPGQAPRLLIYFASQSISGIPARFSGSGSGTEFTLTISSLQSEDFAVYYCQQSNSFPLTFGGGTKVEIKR", "s⁻¹", 0.000415],
  ["Antibody 180 (antibody, human IgG1, kappa, V domains shown) VH: EVQLVQSGAEVKKPGATVKISCKASGYTLSDYYLHWVRQAPEKGLEWMGWIDPENGDTESAPKFQGRVTITADTSTDTGYLELSSLRSEDTAVYYCAANKELRYFDVWGQGTLVTVSS VL: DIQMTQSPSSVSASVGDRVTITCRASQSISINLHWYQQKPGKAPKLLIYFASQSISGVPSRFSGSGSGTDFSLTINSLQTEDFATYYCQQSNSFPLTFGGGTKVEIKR", "s⁻¹", "9.27e-05"]
]}

--- query ---
Prompt: Name the recorded koff of the item Antibody 195 (antibody, human IgG1, kappa, V domains shown) VH: QVQLVQSGAEVKKPGASVKVSCKASGYTFTDYYLHWVRQAPGQGLEWMGWIDPENGDTEHAPKFQGRVTMTTDTSTSTAYMELRSLRSDDTAVYYCAANKELRYFDVWGQGTMVTVSS VL: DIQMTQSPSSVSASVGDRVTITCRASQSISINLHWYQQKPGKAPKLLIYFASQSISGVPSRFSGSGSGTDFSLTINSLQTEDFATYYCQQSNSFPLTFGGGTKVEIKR in your answer.
Response: 0.000202
